- Test System: T1, recombinant human B7-H4-huIgG1 (human)
- T1 construct: also called B7-H4-extracellular domain (ECD)
- T1 sequence (chain, as listed by the source limits assumed): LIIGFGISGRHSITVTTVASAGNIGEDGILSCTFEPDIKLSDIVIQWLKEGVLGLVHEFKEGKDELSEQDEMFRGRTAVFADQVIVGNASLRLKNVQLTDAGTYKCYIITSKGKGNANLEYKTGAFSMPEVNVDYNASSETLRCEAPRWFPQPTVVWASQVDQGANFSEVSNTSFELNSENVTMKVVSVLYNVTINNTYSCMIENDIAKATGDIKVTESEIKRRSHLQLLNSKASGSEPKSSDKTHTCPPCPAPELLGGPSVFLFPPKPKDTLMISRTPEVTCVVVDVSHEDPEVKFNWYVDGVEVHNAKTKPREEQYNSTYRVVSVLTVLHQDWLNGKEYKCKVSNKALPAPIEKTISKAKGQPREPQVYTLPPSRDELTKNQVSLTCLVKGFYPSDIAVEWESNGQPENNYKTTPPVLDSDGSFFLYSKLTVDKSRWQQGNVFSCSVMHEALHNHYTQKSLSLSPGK
- Protocol Summary: BLI, antigen on Protein A tips;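 also: Anti-B7-H4 antibodies assessed for affinity toward the B7-H4 extracellular domain using biolayer interferometry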
Reported kon values for a set of binders

Worked cases, answers included:
Binder	kon
B7-H4 antibody 15465 (antibody, human IgG1, kappa, V domains shown, human IgG1/kappa) VH: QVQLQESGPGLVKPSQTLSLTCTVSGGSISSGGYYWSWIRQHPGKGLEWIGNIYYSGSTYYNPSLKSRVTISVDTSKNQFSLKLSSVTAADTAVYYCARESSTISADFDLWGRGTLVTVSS VL: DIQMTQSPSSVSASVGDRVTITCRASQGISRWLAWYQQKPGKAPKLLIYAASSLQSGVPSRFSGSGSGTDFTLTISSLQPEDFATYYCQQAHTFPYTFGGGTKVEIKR	484000 M⁻¹ s⁻¹
B7-H4 antibody 20496 (antibody, human IgG1, kappa, V domains shown, human IgG1/kappa) VH: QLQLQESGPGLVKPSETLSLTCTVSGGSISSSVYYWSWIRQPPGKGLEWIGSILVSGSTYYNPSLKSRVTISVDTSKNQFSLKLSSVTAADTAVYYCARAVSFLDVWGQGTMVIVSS VL: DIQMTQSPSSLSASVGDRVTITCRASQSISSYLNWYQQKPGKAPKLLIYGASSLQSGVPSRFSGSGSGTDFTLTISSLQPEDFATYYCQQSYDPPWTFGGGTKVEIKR	689000 M⁻¹ s⁻¹
B7-H4 antibody 20502.1 (antibody, human IgG1, kappa, V domains shown, human IgG1/kappa) VH: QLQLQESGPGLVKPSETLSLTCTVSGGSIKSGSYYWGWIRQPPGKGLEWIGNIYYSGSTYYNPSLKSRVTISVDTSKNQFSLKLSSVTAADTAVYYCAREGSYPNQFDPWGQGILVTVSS VL: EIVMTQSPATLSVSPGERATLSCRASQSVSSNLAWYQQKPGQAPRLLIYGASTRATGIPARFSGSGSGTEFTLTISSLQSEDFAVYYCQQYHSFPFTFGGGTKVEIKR	487000 M⁻¹ s⁻¹
B7-H4 antibody 22208 (antibody, human IgG1, kappa, V domains shown, human IgG1/kappa) VH: QLQLQESGPGLVKPSETLSLTCTVSGGSIKSGSHYWGWIRQPPGKGLEWIGNIYYSGSTYYNPSLKSRVTMSVDTSKNQFSLKLSSVTAADTAVYYCAREGSYPNWFDPWGQGTLVTVSS VL: EIVMTQSPATLSVSPGERATLSCRASQSVSTNLAWYQQKPGQAPRLLIYDASARVTGIPARFSGSGSGTEFTLTISSLQSEDFAVYYCQQYHSFPFTFGGGTKVEIKR	184000 M⁻¹ s⁻¹
B7-H4 antibody 15495 (antibody, human IgG1, kappa, V domains shown, human IgG1/kappa) VH: QVQLVQSGAEVKKPGSSVKVSCKASGGTFSSYAISWVRQAPGQGLEWMGGIIPIFGTASYAQKFQGRVTITADESTSTAYMELSSLRSEDTAVYYCARQQYDGRRYFGLWGRGTLVTVSS VL: EIVMTQSPATLSVSPGERATLSCRASQSVSSNLAWYQQKPGQAPRLLIYSASTRATGIPARFSGSGSGTEFTLTISSLQSEDFAVYYCQQVNVWPPTFGGGTKVEIKR	2.89e+06 M⁻¹ s⁻¹

## Task Fill in: kon of B7-H4 antibody 20500 (antibody, human IgG1, kappa, V domains shown, human IgG1/kappa) VH: QLQLQESGPGLVKPSETLSLTCTVSGGSIKSGSHYWGWIRQPPGKGLEWIGNIYYSGSTYYNPSLRSRVTISVDTSKNQFSLKLSSVTAADTAVYYCAREGSYPNWFDPWGQGTLVTVSS VL: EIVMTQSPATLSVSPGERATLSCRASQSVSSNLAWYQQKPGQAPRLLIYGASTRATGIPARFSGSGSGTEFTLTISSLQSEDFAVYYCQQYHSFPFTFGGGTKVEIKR is ___
## Result 391000 M⁻¹ s⁻¹

## Task Would you kindly share the measured kon for B7-H4 antibody 20516 (antibody, human IgG1, kappa, V domains shown, human IgG1/kappa) VH: QVQLQESGPGLVKPSETLSLTCTVSGGSIISYYWGWIRQPPGKGLEWIGYIYSSGSTSYNPSLKSRVTISVDTSKNQFSLKLSSVTAADTAVYYCARGSGLYAAPDYGLDVWGQGTTVTVSS VL: DIQMTQSPSTLSASVGDRVTITCRASQSISSWLAWYQQKPGKAPKLLIYKASSLESGVPSRFSGSGSGTEFTLTISSLQPDDFATYYCQQDNSFPFTFGGGTKVEIKR ?
## Result 410000 M⁻¹ s⁻¹

## Task Look up kon for this binder: B7-H4 antibody 20501 (antibody, human IgG1, kappa, V domains shown, human IgG1/kappa) VH: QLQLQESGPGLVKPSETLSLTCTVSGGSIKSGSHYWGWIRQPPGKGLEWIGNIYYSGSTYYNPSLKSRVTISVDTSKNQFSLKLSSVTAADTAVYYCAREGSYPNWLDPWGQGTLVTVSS VL: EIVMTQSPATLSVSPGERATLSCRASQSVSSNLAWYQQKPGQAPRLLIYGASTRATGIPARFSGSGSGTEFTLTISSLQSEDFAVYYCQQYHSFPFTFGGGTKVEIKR
## Result 980000 M⁻¹ s⁻¹

## Task Report kon for B7-H4 antibody 20502 (antibody, V domains shown, human IgG1/kappa) VH: QLQLQESGPGLVKPSETLSLTCTVSGGSIKSGSYYWGWIRQPPGKGLEWIGNIYYSGSTYYNPSLRSRVTISVDTSKNQFSLKLSSVTAADTAVYYCAREGSYPNQFDPWGQGTLVTVSS VL: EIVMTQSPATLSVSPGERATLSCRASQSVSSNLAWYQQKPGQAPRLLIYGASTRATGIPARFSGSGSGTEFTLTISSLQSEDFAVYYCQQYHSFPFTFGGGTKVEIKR please.
## Result 936000 M⁻¹ s⁻¹

## Task State the recorded kon for this entry: B7-H4 antibody 22216 (antibody, human IgG1, kappa, V domains shown, human IgG1/kappa) VH: QVQLQESGPGLVKPSQTLSLTCTVSGGSISDGSYYWSWIRQHPGKGLEWIGNIYYSGSTYYNPSLRSRVTMSVDTSKNQFSLKLSSVTAADTAVYYCARGLSTIDEAFDPWGQGTLVTVSS VL: DIQMTQSPSTLSASVGDRVTITCRASKSISSWLAWYQQKPGKAPKLLIYEASSLHSGVPSRFSGSGSGTEFTLTISSLQPDDFATYYCQQDNSYPYTFGGGTKVEIKR
## Result 245000 M⁻¹ s⁻¹

## Task Reported kon, binder B7-H4 antibody 20506 (antibody, V domains shown, human IgG1/kappa) VH: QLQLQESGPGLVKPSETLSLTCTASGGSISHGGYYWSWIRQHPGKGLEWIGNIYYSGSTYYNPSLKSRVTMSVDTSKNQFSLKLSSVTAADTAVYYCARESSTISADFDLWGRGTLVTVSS VL: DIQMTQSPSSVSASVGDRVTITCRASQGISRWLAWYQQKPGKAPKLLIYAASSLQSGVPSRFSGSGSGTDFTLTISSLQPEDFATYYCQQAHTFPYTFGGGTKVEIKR : ____
## Result 441000 M⁻¹ s⁻¹
